- Experiment description: residual activity after 200 min at 30-90 °C
- Condition notes: glycan gained; control: wild type
Result type: stability_or_folding

CTendo45: L47T (protein) parent chain: MHLSQLALPLLLAAGAHAQGAQGTGRTTRYWDCCKPSCAWPGKSNALQPVQTCNAQDQPLNDGGNTRSGCDSGGSAFMCSNQSPWALNETLSYGWAAVRIAGQSEFNWCCACYELTFTSGPVAGKKMIVQATNTGGDLGSNHFDIAIPGGGVGIFNACTQQYGAPPNGWGERYGGIRSRSECDSFPEALKAGCYWRFDWFLGADNPDVSFKQVACPAAITAKSKCVRQRDVIDQTPTGPEIVPTWTP
increases
CTendo45: R67S (protein) parent chain: MHLSQLALPLLLAAGAHAQGAQGTGRTTRYWDCCKPSCAWPGKSNALQPVQTCNAQDQPLNDGGNTRSGCDSGGSAFMCSNQSPWALNETLSYGWAAVRIAGQSEFNWCCACYELTFTSGPVAGKKMIVQATNTGGDLGSNHFDIAIPGGGVGIFNACTQQYGAPPNGWGERYGGIRSRSECDSFPEALKAGCYWRFDWFLGADNPDVSFKQVACPAAITAKSKCVRQRDVIDQTPTGPEIVPTWTP
increases
CTendo45: G63T (protein) parent chain: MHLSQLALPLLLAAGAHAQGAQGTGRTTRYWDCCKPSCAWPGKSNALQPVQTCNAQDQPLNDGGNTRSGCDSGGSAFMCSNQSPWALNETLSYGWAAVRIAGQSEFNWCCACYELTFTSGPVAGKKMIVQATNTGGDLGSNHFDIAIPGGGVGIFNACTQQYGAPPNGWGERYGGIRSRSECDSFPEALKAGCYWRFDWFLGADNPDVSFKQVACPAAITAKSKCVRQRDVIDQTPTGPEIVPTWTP
decreases
CTendo45: Q56T (protein) parent chain: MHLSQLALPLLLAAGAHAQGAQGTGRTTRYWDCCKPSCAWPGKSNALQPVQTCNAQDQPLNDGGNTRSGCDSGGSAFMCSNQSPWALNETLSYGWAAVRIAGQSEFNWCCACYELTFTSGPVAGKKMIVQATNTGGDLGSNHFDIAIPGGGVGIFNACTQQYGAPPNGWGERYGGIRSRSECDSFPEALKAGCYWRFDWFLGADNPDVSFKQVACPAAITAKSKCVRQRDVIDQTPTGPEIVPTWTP
decreases

Values compiled from paper PMC7045587.
